- System: serum of BALB/c mice
- test_protocol: Dot-ELISA, synthetic peptides with serum of immunized BALB/c mice
- Assay type: in vivo
- Set-up: key: — = Did not react; X = Reacted
- stated_conditions: Dot-ELISA; peptide as antigen; mice inoculated with pool of all 8 hybrid peptides
measured_property: Peptide Reactivity, Mice serum inoculated with pool

seq_text: LAESTEGNLEEVWILGKGGGGFSESMKALIKKYVDTSKPTIYVDQGTVMKV (Synthetic hybrid peptide) [P51]
experimental_result: X
--
seq_text: SSVSSQSDQASTSSQLGGGGAMGDSVHWKVKPVDNKLFIMP (Synthetic hybrid peptide) [P41]
experimental_result: —
--
seq_text: SKVASVEYILAARGGGGQVDRLANALGK (Synthetic hybrid peptide) [P28]
experimental_result: —
--
seq_text: SKVASVEYILAARGGGGQVDRLANALGKGGGGAMGDSVHWKVKPVDNKLFIMP (Synthetic hybrid peptide) [P53]
experimental_result: X
--
seq_text: GASTDDAAAAAKIVAMAYGRGGGGTIVPVKTFDDGALTYFQFYDNNKVIP (Synthetic hybrid peptide) [P50]
experimental_result: —
--
seq_text: GASTDDAAAAAKIVAMAYGRGGGGGASSVDALTATKLVAAALGH (Synthetic hybrid peptide) [P44]
experimental_result: —
--
seq_text: SECVSLQPTDSSSASGQQQEGGGGLQGHMIDAVLETAINSDIPGVLRAIVSRDV (Synthetic hybrid peptide) [P54]
experimental_result: X
--
seq_text: LAESTEGNLEEVWILGKGGGGDELSKKVCGKGTTSGSTNQCG (Synthetic hybrid peptide) [P42]
experimental_result: —

* * *

- Tested on: serum of BALB/c mice
- test_protocol: Dot-ELISA, synthetic peptides with serum of immunized BALB/c mice
- Assay type: in vivo
- Design: key: — = Did not react; X = Reacted
- stated_conditions: Dot-ELISA; peptide as antigen; serum of mouse 1 inoculated with the same isolated peptide; serum 1:25
measured_property: Peptide Reactivity, Mice serum inoculated with isolated peptides 1

seq_text: LAESTEGNLEEVWILGKGGGGDELSKKVCGKGTTSGSTNQCG (Synthetic hybrid peptide) [P42]
experimental_result: X
//
seq_text: SKVASVEYILAARGGGGQVDRLANALGK (Synthetic hybrid peptide) [P28]
experimental_result: —
//
seq_text: GASTDDAAAAAKIVAMAYGRGGGGTIVPVKTFDDGALTYFQFYDNNKVIP (Synthetic hybrid peptide) [P50]
experimental_result: —
